test system: T1, atToc132 A- plus G-domains bait (Arabidopsis thaliana, UniProt Q9SLF3 1-794)
T1 construct: atToc132, A. thaliana, A- and G-domains, amino acids 1-794; also called Toc132AG; atToc132AG; source: yeast two-hybrid fusion (pBT3-STE, S. cerevisiae NMY51); not shown: STE2 leader (N-terminal 13 amino acids of S. cerevisiae Ste2), N-terminal, kept; Cub-LexA-VP16, C-terminal, kept
T1 sequence (Q9SLF3 1-794): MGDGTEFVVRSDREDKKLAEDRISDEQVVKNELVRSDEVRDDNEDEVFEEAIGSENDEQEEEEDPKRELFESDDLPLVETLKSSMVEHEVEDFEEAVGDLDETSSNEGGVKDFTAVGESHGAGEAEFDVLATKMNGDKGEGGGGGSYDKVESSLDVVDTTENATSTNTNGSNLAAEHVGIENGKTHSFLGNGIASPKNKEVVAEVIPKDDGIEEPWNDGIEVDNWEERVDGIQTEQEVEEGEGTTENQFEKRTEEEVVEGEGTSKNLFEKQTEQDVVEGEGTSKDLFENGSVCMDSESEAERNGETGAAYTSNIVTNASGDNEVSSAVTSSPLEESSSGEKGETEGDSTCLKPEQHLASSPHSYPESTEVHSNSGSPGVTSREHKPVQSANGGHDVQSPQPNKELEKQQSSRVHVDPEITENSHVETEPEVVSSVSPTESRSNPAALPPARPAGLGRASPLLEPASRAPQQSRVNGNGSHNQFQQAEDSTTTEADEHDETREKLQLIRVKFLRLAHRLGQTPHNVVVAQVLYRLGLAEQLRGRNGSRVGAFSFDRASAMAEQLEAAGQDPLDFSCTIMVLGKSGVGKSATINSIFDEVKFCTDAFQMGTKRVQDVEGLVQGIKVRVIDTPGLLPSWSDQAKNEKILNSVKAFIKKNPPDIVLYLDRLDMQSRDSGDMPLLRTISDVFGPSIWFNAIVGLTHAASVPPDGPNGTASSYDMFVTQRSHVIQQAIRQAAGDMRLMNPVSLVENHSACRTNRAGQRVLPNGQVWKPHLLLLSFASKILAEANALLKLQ
experiment: two-hybrid; pairwise split-ubiquitin yeast two-hybrid of isolated NubG-preys with Toc159G, Toc132G or Toc132AG bait in NMY51; growth on SD-LWHA (3-AT) and quantitative β-Gal assay, activity relative to a reference bait set to 100%
condition summary: partners not purified
property label: relative strength of interaction (β-Gal) with Toc132AG against Toc132G, % change (%)
The answer is to be given in %; state only the numeric part.

>  <binder>
Photosystem I subunit F (natural protein, Arabidopsis thaliana, UniProt Q9SHE8 1-221, looked up) MSLTIPANLVLNPRSNKSLTQSVPKSSARFVCSDDKSSSSTPQSMKAFSAAVALSSILLSAPMPAVADISGLTPCKDSKQFAKREKQQIKKLESSLKLYAPESAPALALNAQIEKTKRRFDNYGKYGLLCGSDGLPHLIVNGDQRHWGEFITPGILFLYIAGWIGWVGRSYLIAISGEKKPAMKEIIIDVPLASRIIFRGFIWPVAAYREFLNGDLIAKDV

>  <uom>
%

>  <value measured>
-25.5

$$$$

Entry Photosystem I light harvesting complex gene 3 (natural protein, Arabidopsis thaliana, UniProt Q9SY97 1-273, looked up) MAAQALVSSSLTSSVQTARQIFGSKPVASASQKKSSFVVKAAATPPVKQGANRPLWFASSQSLSYLDGSLPGDYGFDPLGLSDPEGTGGFIEPRWLAYGEIINGRFAMLGAAGAIAPEILGKAGLIPAETALPWFQTGVIPPAGTYTYWADNYTLFVLEMALMGFAEHRRLQDWYNPGSMGKQYFLGLEKGLAGSGNPAYPGGPFFNPLGFGKDEKSLKELKLKEVKNGRLAMLAILGYFIQGLVTGVGPYQNLLDHLADPVNNNVLTSLKFH has what relative strength of interaction (β-Gal) with Toc132AG against Toc132G, % change?
-26.8

Entry Photosystem I light harvesting complex gene 2 (natural protein, Arabidopsis thaliana, UniProt Q9SYW8 1-257, looked up) MASSLCASSAIAAISSPSFLGGKKLRLKKKLTVPAVSRPDASVRAVAADPDRPIWFPGSTPPEWLDGSLPGDFGFDPLGLSSDPDSLKWNVQAEIVHCRWAMLGAAGIFIPEFLTKIGILNTPSWYTAGEQEYFTDKTTLFVVELILIGWAEGRRWADIIKPGSVNTDPVFPNNKLTGTDVGYPGGLWFDPLGWGSGSPAKLKELRTKEIKNGRLAMLAVMGAWFQHIYTGTGPIDNLFAHLADPGHATIFAAFTPK has what relative strength of interaction (β-Gal) with Toc132AG against Toc132G, % change?
-36.4

Entry Photosystem I reaction center subunit PSI-N (natural protein, Arabidopsis thaliana, UniProt P49107 1-171, looked up) MAAMNSSVLTCSYAIAGSGSVELNQKVGLVNSSVGFGQKKQMIMPVIKAQRVVGDDVDGSNGRRSAMVFLAATLFSTAAVSASANAGVIDEYLERSKTNKELNDKKRLATSGANFARAFTVQFGSCKFPENFTGCQDLAKQKKVPFISEDIALECEGKDKYKCGSNVFWKW has what relative strength of interaction (β-Gal) with Toc132AG against Toc132G, % change?
-25.4

meta.source: paper PMC3988174
